Hello, the source for this data is patent US20210009668A1, in case you need it.

Biological target: T1, recombinant human cardiac troponin T (human, UniProt P45379 2-298)
T1 construct: In the ECL assay the cTnT came from the Troponin T hs CalSet calibrator; also called cTnT; TnT
Assay: SPR (Biacore T200, 37 C), Fab captured, cTnT analyte
EXPERIMENTAL_ENDPOINT: Kd (nM)
Write it as a number; the unit nM goes unstated.

In the examples that follow, each entry is paired with its recorded Kd.
BINDER | VALUE
anti-cTnT Fab mutant 16 (Y34I, V101Y + Y104F) (Fab, V domains shown, also called combination 16) VH: EVQLQQSGPELVKPGASVKMSCKASGYTFTDYIMKWVKQSHGKSLEWIGDINPNNGETFYNQKFKDKATLTVDKSSSTAYMQLNSLTSEDSAVYYCATRYFDFWGQGTTLTVSS VL: DIVLTQSPASLAVSLGQRATISCKASQSVDYDGTSYMNWFQQKAGQPPKRLIYAASNLESGIPARFSGRGSGTDFALNIHPVEEEDAATYYCQQSNEDPYTFGGGTKLEIK | 3.4
parental anti-cTnT Fab fragment (wildtype TnT M-7 Fab, from antibody 12.1A11.11-7) (Fab, V domains shown, also called wildtype Fab; TnT M-7 (wildtype) Fab) VH: EVQLQQSGPELVKPGASVKMSCKASGYTFTDYYMKWVKQSHGKSLEWIGDINPNNGETFYNQKFKDKATLTVDKSSSTAYMQLNSLTSEDSAVYYCATRVFDYWGQGTTLTVSS VL: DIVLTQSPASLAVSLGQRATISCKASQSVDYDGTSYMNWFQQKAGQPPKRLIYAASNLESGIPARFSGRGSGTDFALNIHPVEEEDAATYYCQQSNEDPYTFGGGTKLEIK | 0.58
anti-cTnT Fab mutant 8 (Y34F, V101Y + Y104F) (Fab, V domains shown, also called combination 8) VH: EVQLQQSGPELVKPGASVKMSCKASGYTFTDYFMKWVKQSHGKSLEWIGDINPNNGETFYNQKFKDKATLTVDKSSSTAYMQLNSLTSEDSAVYYCATRYFDFWGQGTTLTVSS VL: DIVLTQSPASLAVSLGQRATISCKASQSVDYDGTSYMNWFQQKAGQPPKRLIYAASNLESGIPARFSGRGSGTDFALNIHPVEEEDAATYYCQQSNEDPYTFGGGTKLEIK | 0.2
anti-cTnT Fab mutant 1 (Y34F) (Fab, V domains shown, also called combination 1) VH: EVQLQQSGPELVKPGASVKMSCKASGYTFTDYFMKWVKQSHGKSLEWIGDINPNNGETFYNQKFKDKATLTVDKSSSTAYMQLNSLTSEDSAVYYCATRVFDYWGQGTTLTVSS VL: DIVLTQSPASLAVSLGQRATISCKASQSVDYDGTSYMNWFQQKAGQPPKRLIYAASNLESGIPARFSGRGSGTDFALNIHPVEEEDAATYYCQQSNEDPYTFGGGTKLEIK | 0.62
anti-cTnT Fab mutant 23 (F60W, V101Y + Y104F) (Fab, V domains shown, it was tied to mutant 23 by the printed mutations; also called combination 23) VH: EVQLQQSGPELVKPGASVKMSCKASGYTFTDYYMKWVKQSHGKSLEWIGDINPNNGETWYNQKFKDKATLTVDKSSSTAYMQLNSLTSEDSAVYYCATRYFDFWGQGTTLTVSS VL: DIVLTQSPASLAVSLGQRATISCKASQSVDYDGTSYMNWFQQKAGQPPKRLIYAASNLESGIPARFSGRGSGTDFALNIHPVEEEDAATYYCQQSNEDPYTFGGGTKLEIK | 1.2

Now for the binder whose Kd we want.
Look up Kd for this binder: anti-cTnT Fab mutant 7 (Y34F, Y104F) (Fab, V domains shown, also called combination 7) VH: EVQLQQSGPELVKPGASVKMSCKASGYTFTDYFMKWVKQSHGKSLEWIGDINPNNGETFYNQKFKDKATLTVDKSSSTAYMQLNSLTSEDSAVYYCATRVFDFWGQGTTLTVSS VL: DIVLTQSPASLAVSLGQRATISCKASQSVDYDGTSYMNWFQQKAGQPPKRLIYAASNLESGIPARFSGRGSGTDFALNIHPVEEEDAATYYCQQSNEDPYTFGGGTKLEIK
0.45
